Target: mu opiate receptor (MOR) (Rattus norvegicus, UniProt P33535)
Construct: from tissue; host or cells: striatal tissue (membrane preparation)
Sequence (P33535 whole entry): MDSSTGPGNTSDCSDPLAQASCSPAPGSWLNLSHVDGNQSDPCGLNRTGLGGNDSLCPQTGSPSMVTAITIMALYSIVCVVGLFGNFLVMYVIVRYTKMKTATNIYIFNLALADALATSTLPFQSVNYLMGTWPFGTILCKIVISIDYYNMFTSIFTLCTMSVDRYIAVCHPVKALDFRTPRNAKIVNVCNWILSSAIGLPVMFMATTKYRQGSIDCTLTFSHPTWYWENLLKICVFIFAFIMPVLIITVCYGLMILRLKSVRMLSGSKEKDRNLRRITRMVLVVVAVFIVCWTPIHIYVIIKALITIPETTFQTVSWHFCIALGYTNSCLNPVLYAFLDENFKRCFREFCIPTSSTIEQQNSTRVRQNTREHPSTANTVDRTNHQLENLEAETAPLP
Experiment: [35S]GTPγS binding assay using striatal membranes (MOR agonist activity)
Assay type: biochemical
Set-up: reference not given here
Settings: 1 μM compound + 1 μM β-funaltrexamine
ENDPOINT_LABEL: MOR agonist activity, [35S]GTPγS binding to Gαo, 1 μM + BFNA (%)

INSERT INTO results (compound, units_label, recorded_number) VALUES
  ('COc1ccc(CCCCC2c3c(cc4c(c3OC)OCO4)CC[N+]2(C)C)cc1 (stereo not drawn)', '%', 41.8),
  ('COc1c2c(cc3c1C(CC(=O)CCc1ccc(Cl)cc1)[N+](C)(C)CC3)OCO2 (stereo not drawn)', '%', 49.6),
  ('COc1c2c(cc3c1C(CC(O)CCc1ccccc1)N(C)CC3)OCO2 (stereo not drawn)', '%', 43.8),
  ('COc1c2c(cc3c1C(CC(=O)Cc1ccccc1C)N(C)CC3)OCO2 (stereo not drawn)', '%', 134.3),
  ('COc1ccc(CCC(=O)CC2c3c(cc4c(c3OC)OCO4)CCN2C)cc1 (stereo not drawn)', '%', 68.4),
  ('COc1c2c(cc3c1C(CC(O)CCc1ccccc1)[N+](C)(C)CC3)OCO2 (stereo not drawn)', '%', 40.9),
  ('COc1c2c(cc3c1C(CC(=O)CCc1ccccc1)N(C)CC3)OCO2 (stereo not drawn)', '%', 48.8),
  ('COc1ccc(CC(=O)CC2c3c(cc4c(c3OC)OCO4)CC[N+]2(C)C)c(OC)c1 (stereo not drawn)', '%', 17.6),
  ('COc1cc(F)ccc1C(=O)CC1c2c(cc3c(c2OC)OCO3)CC[N+]1(C)C (stereo not drawn)', '%', 64.5),
  ('COc1ccc(CCC(O)CC2c3c(cc4c(c3OC)OCO4)CC[N+]2(C)C)cc1 (stereo not drawn)', '%', 133.2),
  ('COc1c2c(cc3c1C(CC(=O)Cc1ccc(C#N)cc1)[N+](C)(C)CC3)OCO2 (stereo not drawn)', '%', 145.1),
  ('COc1c2c(cc3c1C(CC(=O)c1ccc(O)c(C)c1)[N+](C)(C)CC3)OCO2 (stereo not drawn)', '%', 101.4),
  ('COc1ccc(C(=O)CC2c3c(cc4c(c3OC)OCO4)CC[N+]2(C)C)c(F)c1.[I-] (stereo not drawn)', '%', 21.6),
  ('COCOc1ccc(CCC(=O)CC2c3c(cc4c(c3OC)OCO4)CC[N+]2(C)C)cc1.[I-] (stereo not drawn)', '%', 55.3),
  ('COc1c2c(cc3c1C(CC(=O)c1ccc(F)c(F)c1)[N+](C)(C)CC3)OCO2 (stereo not drawn)', '%', 18.6);

###

Target: UniProt P21333
Assay: FITC-NLX-based FLNA screening assay (FLNA peptide binding assay)
Conditions: 0.1 μM compound, 10 nM FITC-NLX
Procedure: The final assay volume is 100 μl. Compounds are tested in triplicate or quadruplicate.
Each item that follows carries a reported Percent inhibition of FITC-NLX binding, 0.1 μM.
ENDPOINT_LABEL: Percent inhibition of FITC-NLX binding, 0.1 μM (%)

INSERT INTO assay_data (compound, units_label, recorded_number) VALUES
  ('COc1c2c(cc3c1C(CC(=O)CCc1ccccc1)N(C)CC3)OCO2 (stereo not drawn)', '%', 34.5),
  ('COc1ccc(CCC(O)CC2c3c(cc4c(c3OC)OCO4)CCN2C)cc1 (stereo not drawn)', '%', 41.9),
  ('COc1cc(CC(=O)CC2c3c(cc4c(c3OC)OCO4)CC[N+]2(C)C)cc(OC)c1OC (stereo not drawn)', '%', 40.3),
  ('COc1c2c(cc3c1C(CC(=O)Cc1ccccc1C)[N+](C)(C)CC3)OCO2 (stereo not drawn)', '%', 44.2),
  ('CCOc1ccc(C(=O)CC2c3c(cc4c(c3OC)OCO4)CC[N+]2(C)C)cc1F (stereo not drawn)', '%', 45.5),
  ('COc1cc(C(=O)CC2c3c(cc4c(c3OC)OCO4)CC[N+]2(C)C)cc(OC)c1OC (stereo not drawn)', '%', 53.0),
  ('COc1c2c(cc3c1C(CC(=O)/C=C/c1ccc(Cl)cc1)[N+](C)(C)CC3)OCO2 (stereo not drawn)', '%', 41.0),
  ('COc1ccc(C(=O)CC2c3c(cc4c(c3OC)OCO4)CC[N+]2(C)C)cc1C.[I-] (stereo not drawn)', '%', 43.1),
  ('COc1ccccc1CC(O)CC1c2c(cc3c(c2OC)OCO3)CC[N+]1(C)C.[I-] (stereo not drawn)', '%', 51.3),
  ('COc1ccc(C(=O)CC2c3c(cc4c(c3OC)OCO4)CC[N+]2(C)C)c(F)c1.[I-] (stereo not drawn)', '%', 46.7),
  ('COc1ccc(CCC(O)CC2c3c(cc4c(c3OC)OCO4)CC[N+]2(C)C)cc1 (stereo not drawn)', '%', 40.1),
  ('COc1c2c(cc3c1C(CC(=O)Cc1ccccc1Cl)[N+](C)(C)CC3)OCO2.[I-] (stereo not drawn)', '%', 45.7),
  ('COc1c2c(cc3c1C(CC(=O)CCc1ccc(O)cc1)[N+](C)(C)CC3)OCO2.[I-] (stereo not drawn)', '%', 42.8),
  ('COc1c2c(cc3c1C(CC(=O)c1ccncc1)[N+](C)(C)CC3)OCO2 (stereo not drawn)', '%', 34.8),
  ('COc1ccc(C(=O)CC2c3c(cc4c(c3OC)OCO4)CC[N+]2(C)C)cc1 (stereo not drawn)', '%', 43.4);
